Assay notes: Balb/C mouse pharmacokinetics (plasma, colon, ileum)
Type: in vivo
Condition info: male, plasma, po, Balb/C mice, p.o. 5 mg/kg, blood, read-out: Curve area AUC0-t
Method: […] The main pharmacokinetic parameters were calculated with WinNonlin 6.1, and the results of mouse pharmacokinetic experiments are shown in Table 3: […]
In plain terms, low AUC(0-t), meaning strictly below 20 ng·h/mL, gives true (1), and everything else gives false (0).

>>> print(df.to_string())
                                        mol  assigned_class
0  Cc1cc(Nc2nc(NC3CCN(CCC#N)CC3)nc3sccc23)n[nH]1       false (0)
1  Cc1cc(Nc2nc(N[C@@H]3C[C@H]4CC[C@@H](C3)N4CCC#N)nc3c2cnn3C)n[nH]1        true (1)
2  Cc1cc(Nc2nc(N[C@@H]3C[C@H]4CCC[C@@H](C3)N4C(=O)CN3CCOCC3)nc3sccc23)n[nH]1        true (1)
3  Cc1cc(Nc2nc(N[C@@H]3C[C@H]4CCC[C@@H](C3)N4C(=O)c3ccccn3)nc3sccc23)n[nH]1       false (0)
4  Cc1cc(Nc2nc(N[C@@H]3C[C@H]4CC[C@@H](C3)N4S(=O)(=O)N3CC(C#N)C3)nc3ccccc23)n[nH]1        true (1)
5  Cc1cc(Nc2nc(N(C)[C@@H]3C[C@H]4CCC[C@@H](C3)N4C(=O)CN3CCN(C)CC3)nc3sccc23)n[nH]1       false (0)
6  Cc1cc(Nc2nc(N[C@@H]3C[C@H]4CC[C@@H](C3)N4CCC#N)nc3cc(Cl)ccc23)n[nH]1       false (0)
7  Cc1cc(Nc2nc(N[C@@H]3C[C@@H]4CN(CCC#N)C[C@@H]4C3)nc3ccsc23)n[nH]1        true (1)
8  Cc1cc(Nc2nc(N[C@@H]3C[C@H]4CC[C@@H](C3)N4CCC#N)nc3ccsc23)n[nH]1       false (0)

---

Assay notes: Balb/C mouse pharmacokinetics (plasma, colon, ileum)
Assay type: in vivo
Condition info: male, po, Balb/C mice, p.o. 5 mg/kg, ileum, read-out: Mean detention time MRT
A collection of compounds and their measured MRT
Assay endpoint: MRT (h)

                                         mol  reported_value
 0  Cc1cc(Nc2nc(N[C@@H]3C[C@H]4CCC[C@@H](C3)N4S(=O)(=O)c3ccccn3)nc3sccc23)n[nH]1            1.24
 1  Cc1cc(Nc2nc(N[C@@H]3C[C@H]4CCC[C@@H](C3)N4C(=O)c3ccccn3)nc3sccc23)n[nH]1            1.57
 2  Cc1cnc(Nc2cc3ncccc3c(N[C@@H]3C[C@H]4CC[C@@H](C3)N4CCC#N)n2)s1            2.84
 3  Cc1cc(Nc2nc(N[C@@H]3C[C@H]4CC[C@@H](C3)N4CCC#N)nc3cc(Br)ccc23)n[nH]1            2.19
 4  Cc1cc(Nc2nc(N(C)[C@@H]3C[C@H]4CCC[C@@H](C3)N4C(=O)CN3CCN(C)CC3)nc3sccc23)n[nH]1            3.07
 5  Cc1cc(Nc2nc(N[C@@H]3C[C@H]4CC[C@@H](C3)N4C(=O)CN3CCOCC3)nc3sccc23)n[nH]1            1.83
 6  Cc1cc(Nc2nc(N[C@@H]3C[C@H]4CCC[C@@H](C3)N4CCC#N)nc3scnc23)n[nH]1            1.28
 7  COc1ccc2c(Nc3cc(C)[nH]n3)nc(N[C@@H]3C[C@H]4CC[C@@H](C3)N4CCC#N)nc2c1            4.64
 8  Cc1cc(Nc2nc(N[C@@H]3C[C@H]4CCC[C@@H](C3)N4C(=O)CN3CCOCC3)nc3sccc23)n[nH]1            1.28
 9  Cc1cc(Nc2nc(N[C@@H]3C[C@H]4CC[C@@H](C3)N4CCC#N)nc3cc(Cl)ccc23)n[nH]1            3.35
10  Cc1cc(Nc2nc(N[C@@H]3C[C@H]4CC[C@@H](C3)N4CCC#N)nc3cc(-c4cccnc4)ccc23)n[nH]1            2.88
11  Cc1cc(Nc2nc(N[C@@H]3C[C@H]4CC[C@@H](C3)N4CCC#N)nc3sc(C)cc23)n[nH]1            1.77
12  Cc1cc(Nc2nc(N[C@@H]3C[C@H]4CCC[C@@H](C3)N4C(=O)c3ccncc3)nc3sccc23)n[nH]1            1.34
13  Cc1cc(Nc2nc(N[C@@H]3C[C@H]4CCC[C@@H](C3)N4C(=O)CN3CCOCC3)nc3ccsc23)n[nH]1            2.89
14  Cc1cc(Nc2nc(N[C@@H]3C[C@H]4CC[C@@H](C3)N4S(=O)(=O)N3CC(C#N)C3)nc3ccccc23)n[nH]1            4.26
15  Cc1cc(Nc2nc(NC3CCN(CCC#N)CC3)nc3sccc23)n[nH]1            1.23
16  Cc1cc(Nc2nc(N[C@@H]3C[C@H]4CC[C@@H](C3)N4S(=O)(=O)N3CC(C#N)C3)nc3cc(Cl)ccc23)n[nH]1            1.52
17  Cc1cc(Nc2nc(N[C@@H]3C[C@H]4CC[C@@H](C3)N4S(=O)(=O)N3CC(C#N)C3)nc3sccc23)n[nH]1            2.43
18  Cc1cc(Nc2nc(N[C@@H]3C[C@H]4CCC[C@@H](C3)N4C(=O)c3nccn3C)nc3sccc23)n[nH]1            1.36
19  Cc1cc(Nc2nc(N[C@@H]3C[C@@H]4CN(CCC#N)C[C@@H]4C3)nc3ccsc23)n[nH]1            3.37
20  Cc1cc(Nc2nc(N[C@@H]3C[C@H]4CCC[C@@H](C3)N4S(=O)(=O)N3CC(C#N)C3)nc3sccc23)n[nH]1            1.29
21  Cc1cc(Nc2nc(N[C@@H]3C[C@H]4CC[C@@H](C3)N4CCC#N)nc3ccsc23)n[nH]1            2.49
22  Cc1cc(Nc2nc(N[C@@H]3C[C@H]4CC[C@@H](C3)N4CCC#N)nc3c2cnn3C)n[nH]1            2.69
23  CNCC(=O)N1[C@@H]2CCC[C@H]1C[C@H](Nc1nc(Nc3cc(C)[nH]n3)c3ccsc3n1)C2            1.39
24  Cc1cc(Nc2nc(N[C@@H]3C[C@H]4CC[C@@H](C3)N4CCC#N)nc3cc(N4CCOCC4)ccc23)n[nH]1            1.13
